Ref: PubChem BioAssay (NCI)

System: OVCAR-4 ovarian
test-protocol: NCI-60 one-dose screen, 48 h (100 = growth as untreated, 0 = no growth, -100 = all killed)
condition-notes: 10 µM unless noted
Experimental: Growth inhibition of the OVCAR-4 human tumor cell line is measured as a screen for anti-cancer activity. Cells are grown in 96 well plates and exposed to the test compound for 48 hours. Compounds are tested at a single concentration, which is 10^-5 M for most compounds. The reported endpoint is percent growth (GI% or GIPRCNT), where numbers from 0 - 100% represent growth inhibition, and numbers from -100% - 0 represent cell death. For example, a value of 40 represents 60% growth inhibition. […]
About 83,000 compounds went through this panel and 20% of them were active in at least one assay; those are over-represented in the sample as a whole. Calls of active or inactive are those of the source. The calls were made as follows: active = growth percent below 10; inactive = the rest.

compound	assayed-target	growth
COc1cccc(C2=NN3C(C2)c2cc(Br)cc(OC)c2OC32CCN(Cc3ccccc3)CC2)c1 (stereo unspecified)	OVCAR-4 ovarian	90.8% (inactive)
N#C/C(=C\c1ccc(-c2cc(C(F)(F)F)ccc2Cl)o1)c1nc(-c2ccco2)cs1	OVCAR-4 ovarian	85.1% (inactive)
O=C(O)c1ccc(NC(=O)c2ccc(-c3cccc([N+](=O)[O-])c3)o2)cc1	OVCAR-4 ovarian	93.9% (inactive)
COc1cc(C=Nc2oc(-c3ccccc3)c(-c3ccccc3)c2C#N)cc(CN2CCCCC2)c1O	OVCAR-4 ovarian	91.6% (inactive)
COc1cccc(-c2nn(C(C)(C)C)cc2-c2ccnc(NCCCNS(=O)(=O)c3cccc4ccccc34)c2)c1	OVCAR-4 ovarian	101% (inactive)
O=c1cc(CSc2nnc(-c3ccc(F)cc3)o2)c2ccc3ccccc3c2o1	OVCAR-4 ovarian	108% (inactive)
FC(F)(F)c1ccc(-c2cn3nc(-c4c[nH]c5ccc(Br)cc45)sc3n2)cc1	OVCAR-4 ovarian	102% (inactive)
N#CCCN=Nc1c(O)[nH]c2ccc(F)cc12	OVCAR-4 ovarian	90.4% (inactive)
Cc1ccc(NC(=O)/C=C/c2ccccc2)c(C(N)=O)c1	OVCAR-4 ovarian	31.4% (inactive)
CCCCn1cnc2c(Sc3c([N+](=O)[O-])ncn3C)nc(N)nc21	OVCAR-4 ovarian	89.9% (inactive)
Cc1cc(C)nc(SC2=C(Nc3cc(Cl)ccc3O)C(=O)N(Cc3ccccc3)C2=O)n1	OVCAR-4 ovarian	71.2% [30 µM] (inactive)
Cc1ccccc1COc1ccc(-c2ccnn2-c2ccc(Cl)cc2)cc1	OVCAR-4 ovarian	85.7% (inactive)
CC(C)(C)N1CCC1CN (stereo unspecified)	OVCAR-4 ovarian	103% (inactive)
CCCc1cc(=O)n2c(C(=O)Nc3ccc(F)cc3)c(C(=O)Nc3ccc(F)cc3)sc2n1	OVCAR-4 ovarian	36.9% [30 µM] (inactive)
COc1ccc(C(=O)COc2cccc(/C=C3\CSc4ccccc4C3=O)c2)cc1	OVCAR-4 ovarian	84.4% (inactive)
O=C(CN1C(=O)/C(=C/c2ccc(Cl)cc2)SC1=S)NCCCN1CCOCC1	OVCAR-4 ovarian	93.5% (inactive)
Cc1cc(N2CCCCC2)nc(NC2CCCC(Nc3ccnc4cc(Cl)ccc34)C2)n1 (stereo unspecified)	OVCAR-4 ovarian	-38.8% (active)
CCN(CC)c1ccc2c(c1)Oc1nc(N)c(C#N)c(N)c1C2Sc1ccc(SC)cc1 (stereo unspecified)	OVCAR-4 ovarian	-2.7% (active)
O=C(COc1ccc(/C=C2\CSc3ccccc3C2=O)cc1)Nc1nccs1	OVCAR-4 ovarian	104% (inactive)
CCOc1ccc(C(C)=O)cc1NC(=O)c1cccc(-c2nnn(CC)n2)c1	OVCAR-4 ovarian	48% (inactive)
COc1ccc(Nc2cc(C)nc(N3CCN(c4ccnc5cc(Cl)ccc45)CC3)n2)cc1	OVCAR-4 ovarian	36.6% (inactive)
